# solubility annotations
protocolDescription: aqueous solubility
Format: physicochemical
conditionInfo: water; read-out: Aq. solubility

[
  {
    "molecule": "COCCOCOCCNC(=O)[C@@H](NC(=O)[C@H](CC(C)C)[C@H](O)C(=O)NO)C(C)(C)C [Example 1]",
    "cmp": "≥",
    "solubility [µg/mL]": 29600
  },
  {
    "molecule": "C=CC[C@H](C(=O)NO)[C@@H](CC(C)C)C(=O)N[C@H](C(=O)NCC(C)(COC)COC)C(C)(C)C [Example 6]",
    "cmp": "=",
    "solubility [µg/mL]": 400
  },
  {
    "molecule": "COCCOCCOCCNC(=O)[C@@H](NC(=O)[C@H](CC(C)C)[C@H](CSc1cccs1)C(=O)NO)C(C)(C)C [Example 9]",
    "cmp": "=",
    "solubility [µg/mL]": 400
  },
  {
    "molecule": "C=CC[C@H](C(=O)NO)[C@@H](CC(C)C)C(=O)N[C@H](C(=O)NC)C(C)(C)C [Comparator 2, reference compound]",
    "cmp": "=",
    "solubility [µg/mL]": 40
  },
  {
    "molecule": "CNC(=O)[C@@H](NC(=O)[C@H](CC(C)C)C(CSc1cccs1)C(=O)NO)C(C)(C)C (stereo partly shown) [Comparator 3, reference compound]",
    "cmp": "=",
    "solubility [µg/mL]": 180
  },
  {
    "molecule": "C=CC[C@H](C(=O)NO)[C@@H](CC(C)C)C(=O)N[C@H](C(=O)NCCOCCOC)C(C)(C)C [Example 4]",
    "cmp": "=",
    "solubility [µg/mL]": 4700
  },
  {
    "molecule": "CNC(=O)[C@@H](NC(=O)[C@H](CC(C)C)[C@H](O)C(=O)NO)C(C)(C)C [Comparator 1, reference compound]",
    "cmp": "=",
    "solubility [µg/mL]": 7700
  }
]
